Ref: BigSolDB 2.1

STATED CONDITIONS: in acetone, 273.15 K
ENDPOINT NAME: solubility (mole fraction)

solubility (mole fraction) measured on OC/C=C/c1ccccc1 = 0.47

* * *

STATED CONDITIONS: in sec-butanol, 288.15 K
ENDPOINT NAME: solubility (mole fraction)
Form rule: numeric answer, no unit written next to it.

Sure, the documented solubility (mole fraction) for OC/C=C/c1ccccc1 is 0.53

* * *

STATED CONDITIONS: in ethyl acetate, 273.15 K
ENDPOINT NAME: solubility (mole fraction)
Form field (numeric): enter value without unit.

The value of solubility (mole fraction) measured for the compound OC/C=C/c1ccccc1 turned out to be 0.416

* * *

STATED CONDITIONS: in ethanol, 258.15 K
ENDPOINT NAME: solubility (mole fraction)
Hey, just send me the number, nothing else.

# molecule OC/C=C/c1ccccc1 ; its solubility (mole fraction) = 0.256

* * *

STATED CONDITIONS: in methyl acetate, 283.15 K
ENDPOINT NAME: solubility (mole fraction)
Please state the value as a number alone, without comment.

For OC/C=C/c1ccccc1 the compound record lists solubility (mole fraction) as 0.523

* * *

STATED CONDITIONS: in n-butanol, 258.15 K
ENDPOINT NAME: solubility (mole fraction)

solubility (mole fraction) recorded for this compound, OC/C=C/c1ccccc1 , is 0.162

* * *

STATED CONDITIONS: in isobutanol, 268.15 K
ENDPOINT NAME: solubility (mole fraction)
Give a plain numeric answer without units written out.

Measured solubility (mole fraction) of OC/C=C/c1ccccc1 : 0.217

* * *

STATED CONDITIONS: in ethanol, 288.15 K
ENDPOINT NAME: solubility (mole fraction)
Respond with the number and no other words.

Documented solubility (mole fraction) of OC/C=C/c1ccccc1 : 0.59

* * *

STATED CONDITIONS: in n-propanol, 283.15 K
ENDPOINT NAME: solubility (mole fraction)

# solubility (mole fraction) (compound: OC/C=C/c1ccccc1 ) is 0.496

* * *

STATED CONDITIONS: in n-propanol, 288.15 K
ENDPOINT NAME: solubility (mole fraction)
Give the value as a plain number.

Noted for OC/C=C/c1ccccc1 : its solubility (mole fraction) reads 0.567

* * *

STATED CONDITIONS: in ethanol, 263.15 K
ENDPOINT NAME: solubility (mole fraction)
// return just the number, without any unit appended

Looking up OC/C=C/c1ccccc1 , I see its solubility (mole fraction) listed as 0.298

* * *

STATED CONDITIONS: in sec-butanol, 273.15 K
ENDPOINT NAME: solubility (mole fraction)
Enter a number only.

For reference, reported solubility (mole fraction) for OC/C=C/c1ccccc1 stands at 0.321

* * *

STATED CONDITIONS: in methanol, 278.15 K
ENDPOINT NAME: solubility (mole fraction)

Noted for OC/C=C/c1ccccc1 : its solubility (mole fraction) reads 0.401

* * *

STATED CONDITIONS: in methyl acetate, 253.15 K
ENDPOINT NAME: solubility (mole fraction)
# print the numeric value only

The compound OC/C=C/c1ccccc1 showed solubility (mole fraction) equal to 0.172

* * *

STATED CONDITIONS: in n-hexane, 253.15 K
ENDPOINT NAME: solubility (mole fraction)

The reported value for OC/C=C/c1ccccc1 in terms of solubility (mole fraction) is 0.00446

* * *

STATED CONDITIONS: in acetic acid, 313.15 K
ENDPOINT NAME: solubility (mole fraction)
# output: bare number, no unit

In plain terms, O=C(O)c1ccccc1O has a documented solubility (mole fraction) of 0.0785

* * *

STATED CONDITIONS: in n-propanol, 253.15 K
ENDPOINT NAME: solubility (mole fraction)
Would you mind answering with just the numeric figure?

Noted for OC/C=C/c1ccccc1 : its solubility (mole fraction) reads 0.174

* * *

STATED CONDITIONS: in methanol, 263.15 K
ENDPOINT NAME: solubility (mole fraction)
Enter the number alone.

solubility (mole fraction) for OC/C=C/c1ccccc1 is 0.269

* * *

STATED CONDITIONS: in methanol, 268.15 K
ENDPOINT NAME: solubility (mole fraction)
Just the number, please, no unit attached.

Query OC/C=C/c1ccccc1 yields solubility (mole fraction) of 0.307

* * *

STATED CONDITIONS: in methanol, 283.15 K
ENDPOINT NAME: solubility (mole fraction)
Please reply with the value in numeric form only.

What the record says about OC/C=C/c1ccccc1 : solubility (mole fraction) is 0.466

* * *

STATED CONDITIONS: in methyl acetate, 273.15 K
ENDPOINT NAME: solubility (mole fraction)
Format: numeric value only, no unit, no commentary.

solubility (mole fraction) reading for OC/C=C/c1ccccc1 : 0.392

* * *

STATED CONDITIONS: in isopropanol, 273.15 K
ENDPOINT NAME: solubility (mole fraction)
// response body must contain only the number

OC/C=C/c1ccccc1 yielded solubility (mole fraction) of 0.394

* * *

STATED CONDITIONS: in sec-butanol, 293.15 K
ENDPOINT NAME: solubility (mole fraction)
Answer using only a numeral; do not append any unit.

Entry OC/C=C/c1ccccc1 — recorded solubility (mole fraction) = 0.592

* * *

STATED CONDITIONS: in isobutanol, 263.15 K
ENDPOINT NAME: solubility (mole fraction)
Write no unit; give the number alone.

# solubility (mole fraction) (molecule: OC/C=C/c1ccccc1 ) is 0.165

* * *

STATED CONDITIONS: in acetone, 308.15 K
ENDPOINT NAME: solubility (mole fraction)
Reply with just the number.

Value of measured solubility (mole fraction) for the entry O=C(O)c1ccccc1O : 0.203

* * *

STATED CONDITIONS: in acetone, 288.15 K
ENDPOINT NAME: solubility (mole fraction)
Respond numerically, and do not add a unit to the figure.

Measured solubility (mole fraction), OC/C=C/c1ccccc1 : 0.625

* * *

STATED CONDITIONS: in ethanol, 273.15 K
ENDPOINT NAME: solubility (mole fraction)
Form: value (number only, do not type unit).

// OC/C=C/c1ccccc1 : solubility (mole fraction) value = 0.404

* * *

STATED CONDITIONS: in methanol, 318.15 K
ENDPOINT NAME: solubility (mole fraction)
Form field (numeric): enter value without unit.

The reported solubility (mole fraction) of the compound O=C(O)c1ccccc1O was 0.172

* * *

STATED CONDITIONS: in n-propanol, 273.15 K
ENDPOINT NAME: solubility (mole fraction)
The reply should be a number, written without any unit.

// OC/C=C/c1ccccc1 : solubility (mole fraction) value = 0.373

* * *

STATED CONDITIONS: in n-hexane, 288.15 K
ENDPOINT NAME: solubility (mole fraction)
Give only the figure.

Record OC/C=C/c1ccccc1 , field solubility (mole fraction): 0.0352

* * *

STATED CONDITIONS: in ethyl acetate, 298.15 K
ENDPOINT NAME: solubility (mole fraction)
// print number alone

Memo: O=C(O)c1ccccc1O , reported solubility (mole fraction): 0.13

* * *

STATED CONDITIONS: in sec-butanol, 253.15 K
ENDPOINT NAME: solubility (mole fraction)

# compound OC/C=C/c1ccccc1 ; its solubility (mole fraction) = 0.089

* * *

STATED CONDITIONS: in isopropanol, 268.15 K
ENDPOINT NAME: solubility (mole fraction)
Lab note: record the figure alone, no unit after it.

Sure, the documented solubility (mole fraction) for OC/C=C/c1ccccc1 is 0.33

* * *

STATED CONDITIONS: in n-butanol, 253.15 K
ENDPOINT NAME: solubility (mole fraction)
Please respond with just the number, no unit label.

Measured solubility (mole fraction), OC/C=C/c1ccccc1 : 0.125

* * *

STATED CONDITIONS: in sec-butanol, 263.15 K
ENDPOINT NAME: solubility (mole fraction)
Reply with just the number.

Entry OC/C=C/c1ccccc1 ; solubility (mole fraction) = 0.191

* * *

STATED CONDITIONS: in ethyl acetate, 253.15 K
ENDPOINT NAME: solubility (mole fraction)
Lab note: record just the number, no unit beside it.

Quick note, solubility (mole fraction) for OC/C=C/c1ccccc1 landed at 0.208

* * *

STATED CONDITIONS: in isobutanol, 253.15 K
ENDPOINT NAME: solubility (mole fraction)
Please give only the number in your answer, with no unit.

The reported solubility (mole fraction) of the compound OC/C=C/c1ccccc1 was 0.072

* * *

STATED CONDITIONS: in n-hexane, 273.15 K
ENDPOINT NAME: solubility (mole fraction)
Simply state the number, no unit and no words.

// field: solubility (mole fraction); key: OC/C=C/c1ccccc1 ; value = 0.0194

* * *

STATED CONDITIONS: in n-propanol, 263.15 K
ENDPOINT NAME: solubility (mole fraction)
Could you keep your reply to the number by itself?

// recorded solubility (mole fraction) for OC/C=C/c1ccccc1 : 0.266
